src = patent US12643910B2

# Target of assay: human ENPP1 (Homo sapiens, UniProt P22413)
# Construct: made in house
# Experiment description: ENPP1 assay with ATP substrate (Transcreener AMP2/GMP2 TR-FRET)
# Type: biochemical
# Measurement context: 1 hour at room temperature
What IC50 was measured for each of the following?

Lookup: Please list IC50 recorded for the compound Cn1ncc2c(NCc3ccc(S(N)(=O)=O)nc3)ccnc21 [Example 2.72]
Found: < 0.1 µM

Lookup: Recall and state the measured IC50 for Cc1ccc(CNc2nc(-c3ccccn3)nc3c2cnn3C)o1 [Example 2.22] .
Found: > 20 µM

Lookup: Respond only with IC50 recorded for CCNc1nc(NCc2ccc(S(N)(=O)=O)cc2)c2cnn(C)c2n1 [Example 2.49]
Found: 0.1 to 1 µM

Lookup: Kindly indicate its recorded IC50. Item: Cc1noc2ncnc(NCc3ccc(S(N)(=O)=O)cc3)c12 [Example 2.59]
Found: 1 to 20 µM

Lookup: Tell me measured IC50 for Cc1cc(S(N)(=O)=O)ccc1CNc1ccnc2c1cnn2C [Example 2.69] please.
Found: 0.1 to 1 µM

Lookup: Check the records and state IC50 for Cn1ncc2c(NCc3ccc(S(N)(=O)=O)cc3)nc(Nc3ccccc3)nc21 [Example 2.50]
Found: < 0.1 µM

Lookup: Output measured IC50 for this item: Cn1ncc2c(NCc3ccc(S(N)(=O)=O)cc3)nncc21 [Example 2.56]
Found: > 20 µM

Lookup: Could you please provide reported IC50 for Cn1ncc2c(NCc3ccc(S(N)(=O)=O)cc3)nc(OCC(F)(F)F)nc21 [Example 2.99] ? Thanks!
Found: 0.1 to 1 µM

Lookup: State its IC50: Cn1nnc2c(NCc3ccc(S(N)(=O)=O)cc3)ncnc21 [Example 2.58]
Found: 1 to 20 µM

Lookup: Annotate the compound COc1cc(S(N)(=O)=O)ccc1CNc1ncnc2c1cnn2C [Example 2.3] with its measured IC50.
Found: 0.1 to 1 µM

Lookup: Return IC50 (reported value) for this compound: COc1nc(NCc2ccc(S(N)(=O)=O)cc2)c2cnn(C)c2n1 [Example 2.94]
Found: < 0.1 µM

Lookup: Let me know recorded IC50 for Clc1ccc(CNc2nc(-c3ccccn3)nc3scc(-c4ccccc4)c23)cc1 [Example 1.10] , thanks.
Found: > 20 µM

Lookup: Query IC50 for Cn1ncc2c(NCc3ccc(S(N)(=O)=O)cc3)cc(C3CC3)nc21 [Example 2.134]
Found: 1 to 20 µM

Lookup: # return recorded IC50 for input NS(=O)(=O)c1ccc(CNc2nc(-c3ccccc3)nc3scc(-c4ccccc4)c23)s1 [Example 1.27]
Found: 1 to 20 µM

Lookup: Write down IC50 measured for item Cc1csc2c(N3CCC(NCCCc4ccncc4)CC3)nc(N3CCN(C)CC3)nc12 [Example 3.53]
Found: > 20 µM

Lookup: Specify IC50 for CCSc1nc(NCc2ccc(S(N)(=O)=O)cc2)c2cnn(C)c2n1 [Example 2.108] and stop.
Found: < 0.1 µM

Lookup: Output IC50 of Cn1ncc2c(NCc3ccc(S(N)(=O)=O)cc3)nc(-c3ccncc3)nc21 [Example 2.16]
Found: > 20 µM

Lookup: Given the compound Cc1ccncc1CCCNC1CCN(c2nc(Cl)nc3c(C)csc23)CC1 [Example 3.68] , write its reported IC50.
Found: 1 to 20 µM

----------
# Target of assay: human ENPP1 (Homo sapiens, UniProt P22413)
# Construct: made in house
# Sequence (P22413 1-925): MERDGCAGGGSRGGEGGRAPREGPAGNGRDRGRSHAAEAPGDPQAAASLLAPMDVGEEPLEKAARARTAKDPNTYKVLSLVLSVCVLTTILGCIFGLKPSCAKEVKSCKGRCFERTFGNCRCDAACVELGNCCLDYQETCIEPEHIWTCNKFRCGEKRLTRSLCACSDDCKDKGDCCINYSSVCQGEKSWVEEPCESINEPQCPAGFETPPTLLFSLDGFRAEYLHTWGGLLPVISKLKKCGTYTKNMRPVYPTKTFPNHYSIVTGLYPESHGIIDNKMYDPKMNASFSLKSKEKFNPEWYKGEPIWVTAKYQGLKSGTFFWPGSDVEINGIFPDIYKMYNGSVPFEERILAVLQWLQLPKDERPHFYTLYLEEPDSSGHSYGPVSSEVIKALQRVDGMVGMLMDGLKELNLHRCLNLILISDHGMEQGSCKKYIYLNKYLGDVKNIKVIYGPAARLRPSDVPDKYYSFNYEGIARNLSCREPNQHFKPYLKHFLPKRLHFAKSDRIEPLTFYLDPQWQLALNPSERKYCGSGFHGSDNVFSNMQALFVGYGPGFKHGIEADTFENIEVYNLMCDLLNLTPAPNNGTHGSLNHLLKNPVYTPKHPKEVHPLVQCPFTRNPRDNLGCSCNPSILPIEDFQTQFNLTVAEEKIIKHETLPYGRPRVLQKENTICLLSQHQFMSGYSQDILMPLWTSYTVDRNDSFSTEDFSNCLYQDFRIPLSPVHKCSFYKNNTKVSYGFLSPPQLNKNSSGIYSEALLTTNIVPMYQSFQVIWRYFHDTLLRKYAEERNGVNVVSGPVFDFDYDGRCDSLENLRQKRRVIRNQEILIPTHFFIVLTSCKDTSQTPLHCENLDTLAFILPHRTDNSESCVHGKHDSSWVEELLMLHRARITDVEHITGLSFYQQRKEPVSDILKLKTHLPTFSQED
# Experiment description: ENPP1 assay with ATP substrate (Transcreener AMP2/GMP2 TR-FRET)
# Assay type: biochemical
# Measurement context: 1 hour at room temperature
Reported property: IC50

Lookup: Dear colleague, please send me the reported IC50 for c1ccc(-c2csc3nc(-c4ccccn4)nc(NCc4ccncc4)c23)cc1 when you can.
Found: 0.1 to 1 µM

Lookup: Give the value of IC50 reported for the following: Cc1csc2c(N3CCC(NC(=O)C4CC4c4ccccc4)CC3)ncnc12 (stereo not drawn)
Found: 1 to 20 µM

Lookup: Respond only with IC50 recorded for Cc1csc2c(N3CCC(NCCCc4ccc(Cl)cc4)CC3)ncnc12
Found: < 0.1 µM

Lookup: Specify measured IC50 for Cc1ccncc1/C=C/CNC1CCN(c2ncnc3c(Br)csc23)CC1 .
Found: < 0.1 µM

Lookup: Tell me its IC50 given Cn1ncc2c(NCc3ccc(S(N)(=O)=O)cc3)nc(NC3CC3)nc21 as the entry.
Found: 0.1 to 1 µM

Lookup: Tell me measured IC50 for CC(C)Nc1cc(NCc2ccc(S(N)(=O)=O)cc2)c2cnn(C)c2n1 please.
Found: 1 to 20 µM

Lookup: Tell us which IC50 value is on record for COCCNc1nc(NCc2ccc(S(N)(=O)=O)cc2)c2c(-c3ccccc3)csc2n1
Found: < 0.1 µM

Lookup: Query IC50 for Cn1ncc2c(NCc3ccc(S(N)(=O)=O)cc3)nc(N3CCCCC3)nc21
Found: 1 to 20 µM

Lookup: Specify reported IC50 for the compound shown: Cc1ccc(CNc2nc(-c3ccccn3)nc3scc(-c4ccccc4)c23)cc1
Found: > 20 µM

Lookup: Please list IC50 recorded for the compound CCN(c1nc(NCc2ccc(S(N)(=O)=O)cc2)c2c(-c3ccccc3)csc2n1)C(C)(C)CO
Found: 0.1 to 1 µM

Lookup: Write down IC50 measured for item COc1cc(CCCNC2CCN(c3ncnc4c(C)csc34)CC2)ccn1
Found: 0.1 to 1 µM

Lookup: Dear colleague, please send me the reported IC50 for Cc1csc2c(N3CCC(NC(=O)/C=C/c4ccncc4Cl)CC3)ncnc12 when you can.
Found: 1 to 20 µM

Lookup: Supply IC50 value. Item: Cc1nsc2c(=O)n(Cc3ccc(S(N)(=O)=O)cc3)cnc12
Found: 1 to 20 µM

Lookup: Tell me measured IC50 for CNc1nc(NCc2ccc(S(N)(=O)=O)cc2)c2c(-c3ccccc3)csc2n1 please.
Found: < 0.1 µM

Lookup: Specify IC50 for Cc1nn(C)c2ncnc(NCc3ccc(S(N)(=O)=O)cc3)c12 and stop.
Found: 0.1 to 1 µM

Lookup: Fill in IC50 for record COc1ccc(CNc2nc(-c3ccccn3)nc3scc(-c4ccccc4)c23)cc1
Found: > 20 µM

Lookup: Return IC50 for the following compound: Cn1ncc2ncnc(NCc3ccc(S(N)(=O)=O)cc3)c21
Found: < 0.1 µM

Lookup: # return recorded IC50 for input Cc1csc2c(N3CCC(NCCCc4ccncc4Cl)CC3)ncnc12
Found: 0.1 to 1 µM

Lookup: Give IC50 for the following compound: CN(Cc1ccccc1)c1nc(NCc2ccc(S(N)(=O)=O)cc2)c2cnn(C)c2n1
Found: > 20 µM

Lookup: Please give measured IC50 of the following entry: Nc1nc(NCc2ccc(S(N)(=O)=O)cc2)c2c(-c3ccccc3)csc2n1
Found: < 0.1 µM

Lookup: Tell me measured IC50 for Cn1ncc2c(NCc3ccc(S(N)(=O)=O)nc3)ncnc21 please.
Found: < 0.1 µM

Lookup: Tell me IC50 reported for Cc1nc(NCc2ccc(S(N)(=O)=O)cc2)c2c(Br)nn(C)c2n1
Found: < 0.1 µM

Lookup: Output measured IC50 for this item: Cc1csc2c(N3CCC(NCCCc4cccnc4)CC3)ncnc12
Found: 0.1 to 1 µM

Lookup: Write down IC50 measured for item Cc1ccncc1CCCNC1CCN(c2ncnc3ccsc23)CC1
Found: 1 to 20 µM

Lookup: Please indicate IC50 recorded for Cn1ncc2c(N3CCC(NCCCc4ccncc4)CC3)nc(-c3ccccn3)nc21
Found: > 20 µM

Lookup: Return IC50 for the following compound: Cc1csc2c(N3CCC(NCCCc4ccncc4)CC3)ncnc12
Found: 0.1 to 1 µM

Lookup: Find the measured IC50 of c1ccc(-c2csc3nc(-c4ccccn4)nc(NCc4ccco4)c23)cc1 and report it.
Found: 1 to 20 µM

Lookup: Recall and state the measured IC50 for Cc1nc(NCc2ccc(S(N)(=O)=O)cc2)c2c(C3=CCCC3)nn(C)c2n1 .
Found: 1 to 20 µM

Lookup: Check the records and state IC50 for Cn1ncc2c(NCc3ccc(S(N)(=O)=O)cc3)cc(N3CCCC3)nc21
Found: 1 to 20 µM

Lookup: Tell us which IC50 value is on record for CN(c1ccccc1)c1nc(NCc2ccc(S(N)(=O)=O)cc2)c2cnn(C)c2n1
Found: > 20 µM

Lookup: Complete the entry with IC50 for Cn1ncc2c(NCc3ccc(Cl)cc3)nc(-c3ccccn3)nc21
Found: > 20 µM

Lookup: Hello, please tell me recorded IC50 for this one: Cn1ncc2c(OCc3ccc(S(N)(=O)=O)cc3)ncnc21
Found: 1 to 20 µM

Lookup: Entry N#Cc1ccc(CNc2nc(-c3ccccn3)nc3scc(-c4ccccc4)c23)cc1 needs its IC50 filled in; supply it.
Found: > 20 µM

Lookup: Could you please provide reported IC50 for NS(=O)(=O)c1ccc(CNc2nc(Cl)nc3c2cnn3C2CC2)cc1 ? Thanks!
Found: < 0.1 µM

Lookup: Provide IC50 value for the following compound: NS(=O)(=O)c1ccc(CNc2nc(-c3ccccn3)nc3scc(-c4ccccn4)c23)cc1
Found: 0.1 to 1 µM

Lookup: Tell me IC50 reported for Cn1ncc2c(NCc3ccc(S(N)(=O)=O)cc3)cc(Cl)nc21
Found: < 0.1 µM
